- Test system: HL-60 (promyelocytic leukemia)
- procedure_details: Microcytoxicity assay (SRB), HL-60
- Type: cell-based, human
- measurement_conditions: HL60; origin printed: promyelocytic leukemia
metric: pIC50
Bear in mind: pIC50 is minus log10 of a mol/L concentration; give just that figure.

Query string: Consider the molecule COc1c2c(c3oc4ccccc4c(=O)c3c1OC)CC([C@@]1(C)CO1)O2 (mixture of isomers) [Compound A] and give its recorded pIC50.
Result string: 7.44
